From: PubChem BioAssay (NCI)

# ASSAY_COMMENT: NCI Yeast Anticancer Drug Screen. Data for the sgs1 strain (AID 173);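 further: 0% = growth of vehicle-only control cultures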
# CONDITION_SUMMARY: S. cerevisiae sgs1 mutant, at 3.7 µM, stronger effect = higher value
Compounds without any hit were thinned out: in the full panel of roughly 79,000, 15% have a hit.
READOUT_TYPE: growth inhibition (%)
Give a bare numeral; the unit % is implied.

>  <COMPOUND>
CC(NCCN(C)C)C1CCC2C3CCc4cc(O)ccc4C3CCC12C (configuration not stated)

>  <VALUE_UNIT>
%

>  <growth inhibition>
9

$$$$

Look up growth inhibition for this compound: `COc1ccc([N+](=O)[O-])c2c(NCCCN(C)C)c3ccccc3nc12`
31

Try `C/C(=N\Nc1ccc([N+](=O)[O-])cc1[N+](=O)[O-])c1sc(-n2nc(-c3ccccc3)cc2-c2ccccc2)nc1C` next.
6

What do you get for `Nc1cc(N)c(N=Nc2cccc3c(S(=O)(=O)O)cccc23)cc1N=Nc1cc([N+](=O)[O-])ccc1O` ?
24

----------
# ASSAY_COMMENT: NCI Yeast Anticancer Drug Screen. Data for the rad50EPP+ strain (AID 151);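 further: 0% = growth of vehicle-treated control cultures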
# CONDITION_SUMMARY: S. cerevisiae rad50 mutant strain, at 1.2 µM, stronger effect = higher value
Compounds without any hit were thinned out: in the full panel of roughly 79,000, 15% have a hit.
Reported growth inhibition values for a set of compounds
Write it as a number; the unit % goes unstated.

>  <COMPOUND>
CC1OC(O[C@H]2/C=C/C=C/C=C/C=C/C=C/C=C/C=C/[C@H](C)[C@@H](O)[C@@H](C)[C@H](C)OC(=O)C[C@H](O)C[C@H](O)CC[C@@H](O)[C@H](O)C[C@H](O)C[C@]3(O)C[C@H](O)[C@@H](C(=O)O)[C@H](C2)O3)C(O)C(N)C1O (stereo partly specified)

>  <growth inhibition [%]>
25

$$$$

What value of growth inhibition has been recorded for this entry: `CCc1c(Cl)c(C)cc(O)c1Cl`
-27

Let us now turn to `Cc1cccc(/C=N/NC(=S)N2CCCC2)n1`
-21

How about this compound: `COc1cc(/C=C2\CCC/C(=C\c3ccc(O)c(OC)c3)C2=O)ccc1O`
0

Try the compound `CC1=NOC(=O)/C1=C/c1ccc2c(c1)OCO2`
6

Same thing, different compound: `O=c1[nH]c2ccc(Cl)cc2o1`
-43

Repeat for the following compound: `N#CNC(N)=Nc1cc2ccccc2c2ccccc12`
8

Can you handle `O=[N+]([O-])c1cc(S(=O)(=O)Nc2ccccc2)ccc1Nc1ccccc1` next?
2

Entry to check: `COc1c(O)c(C=O)c(Br)c(C=O)c1O`
24

Entry to check: `CN(C)CCNc1ccc2ncnc3c2c1C(=O)c1ccccc1-3`
90

Then what about the compound CCOC(=O)COc1c(OC)cc(C2C3=C(COC3=O)Oc3cc4c(cc32)OCO4)cc1OC (stereo unspecified) ?
-2

----------
# ASSAY_COMMENT: NCI Yeast Anticancer Drug Screen. Data for the bub3 strain (AID 167)
# CONDITION_SUMMARY: S. cerevisiae bub3 mutant strain, at 3.7 µM
# Procedure: Growth inhibition of yeast strains with defined genetic alterations is measured as a screen for potential anti-cancer activity. Selected strains with alterations in DNA damage repair or cell cycle control were exposed to compounds and growth inhibition was measured relative to vehicle treated controls. The strain used in this assay is bub3
Compounds without any hit were thinned out: in the full panel of roughly 79,000, 15% have a hit. Calls of active or inactive are those of the source. No stated cut-off is given here; in the data, active means growth inhibition above about 70%; inactive means the rest.
Answer with one of the outcomes yes = active, no = inactive

Reference set, count: 5
>  <COMPOUND>
Cc1cc(-c2cc(C)c(O)c(C(C)(C)C)c2)cc(C(C)(C)C)c1O

>  <CLASSIFICATION>
no

$$$$
>  <COMPOUND>
Cc1ccc(Cl)cc1NC(=O)OCCN(C)C(=O)Nc1cc(Cl)ccc1C

>  <CLASSIFICATION>
no

$$$$
>  <COMPOUND>
CCCCCCCCCCCC1N=C(N)NC(CCCO)=C1C(=O)OC (stereo not given)

>  <CLASSIFICATION>
yes

$$$$
>  <COMPOUND>
Oc1ccc(-c2nc(-c3ccc(F)cc3)c(-c3ccc4ccccc4n3)[nH]2)cc1

>  <CLASSIFICATION>
no

$$$$
>  <COMPOUND>
C(=Nc1ccc(-c2cc(-c3ccccc3)nc3ccc4ccccc4c23)cc1)c1ccccc1

>  <CLASSIFICATION>
no

$$$$

Tell me the assay call for CCCCC(CC)C(=O)[O][Sn]([CH2]CCC)([CH2]CCC)[O]C(=O)C(CC)CCCC (stereo not given) please.
no

Please answer likewise for `CNCCCNc1c2ccccc2nc2cccc([N+](=O)[O-])c12`
no

For `Cc1nc2ccccc2nc1NNc1ccccc1` then?
no

And then `O=C(Oc1ccc2c(c1)CN(Cc1ccccc1)CO2)c1ccccc1` , what is it?
no

Now this one: `C=C(C(=C)n1nnc(C(=O)OC)c1C(=O)OC)n1nnc(C(=O)OC)c1C(=O)OC`
no

----------
# ASSAY_COMMENT: NCI Yeast Anticancer Drug Screen. Data for the sgs1 strain (AID 173);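 further: 0% = growth of vehicle-only control cultures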
# CONDITION_SUMMARY: S. cerevisiae sgs1 mutant, at 1.2 µM, stronger effect = higher value
The panel holds about 79,000 compounds, 15% with a hit somewhere; the sample as a whole holds those more often.
READOUT_TYPE: growth inhibition (%)
Reply numerically in %, unit not repeated.

The examples below pair each entry with its known result.
>  <COMPOUND>
Cc1cccc(/C=N/NC(=S)N2CCCC2)n1

>  <growth inhibition, %>
-19

$$$$
>  <COMPOUND>
O=C1C(=O)c2ccccc2C(O)=C1C(C1=C(O)c2ccccc2C(=O)C1=O)c1ccc(Cl)cc1

>  <growth inhibition, %>
16

$$$$
>  <COMPOUND>
Cc1cc(NCCCCCCCCNc2cc(C)nc3cc(N)ccc23)c2ccc(N)cc2n1

>  <growth inhibition, %>
-64

$$$$
>  <COMPOUND>
O=C(CC(C(=O)O)N1CCOCC1)c1ccccc1 (stereo unspecified)

>  <growth inhibition, %>
0

$$$$
>  <COMPOUND>
COc1ccc(NC(=O)CC2SC(=Nc3ccccc3C)NC2=O)c([N+](=O)[O-])c1 (stereo unspecified)

>  <growth inhibition, %>
-2

$$$$
>  <COMPOUND>
CSc1nc(C)c(CCOC(C)=O)c(N=P(c2ccccc2)(c2ccccc2)c2ccccc2)n1

>  <growth inhibition, %>
7

$$$$

Need growth inhibition of `O=C(O)c1ccccc1/C=N/N=C1c2ccccc2-c2ccccc21` , thanks.
0

Note, next up: `COc1ccc(C(=O)c2ccccc2C(=O)c2ccccc2OC)cc1`
-1

Same read-out for `COc1cc(O)c(O)c(C(C)(C)C)c1` ?
1

`CNCCCNc1c2ccccc2nc2cccc([N+](=O)[O-])c12` , same question.
67

Also OC(/C=C/c1ccccc1)(Cc1cc(-c2ccccc2)n[nH]1)c1ccccc1 (stereo unspecified) ?
-9

Same question, `CS(=O)(=O)OCCN(CCOS(C)(=O)=O)c1ccc(C=Nc2ccc(-c3csc(COc4ccccc4)n3)cc2)cc1` this time
11

Moving on to `O=c1ccc2ccccc2c2ccccc12`
-2

Quick one: `CCOc1ccc(NC(=O)C2=C(C)NC(C)=C(C(=O)Nc3ccc(OCC)cc3)C2c2cccc([N+](=O)[O-])c2)cc1`
-2

Request: `Clc1ccc(NCNC2Nc3ccccc3N2)cc1Cl`
1

Would you kindly repeat that for COc1cccc2c1C(=O)c1c(O)c3c(c(O)c1C2=O)C[C@@](O)(C(C)=O)C[C@@H]3OC1CC(OC(C)=O)C(OC(C)=O)C(C)O1 (stereo partly specified) ?
-17

// query: COC(=O)CC1CCc2c(ccc3ccccc23)C1(C)C(=O)OC (stereo unspecified)
-24

Then what about the compound CN(C)c1ccc(C2CC(C)(O)Oc3cc4c(cc32)OCO4)cc1 (stereo unspecified) ?
-1

Also, O=C1CSC(c2cccc(Cl)c2)N1c1ccc(-c2ccc(-n3c(-c4ccccc4)nc4ccccc4c3=O)cc2)cc1 (stereo unspecified) please.
0

Another compound: `O=C(/C=C/c1cc(Cl)cc(Cl)c1O)c1cccc(O)c1`
22

Same again, this time with `COc1cc2ccnc(-c3c4ccccc4c(N)c4c(OC)c(OC)ccc34)c2cc1OC`
-1

----------
# ASSAY_COMMENT: NCI Yeast Anticancer Drug Screen. Data for the mgt1 strain (AID 153)
# CONDITION_SUMMARY: S. cerevisiae mgt1 mutant growth inhibition; at 11.0 µM; stronger effect = higher value
The panel holds about 79,000 compounds, 15% with a hit somewhere; the sample as a whole holds those more often.
READOUT_TYPE: growth inhibition (%)
Write it as a number; the unit % goes unstated.

Solved cases (8 shown):
>  <COMPOUND>
CCCCCCN(CCCCCC)CC(O)c1ccnc2ccc(OC)cc12 (stereo not given)

>  <VALUE_UNIT>
%

>  <NUMBER>
0

$$$$
>  <COMPOUND>
Cc1ccc2c3ccc4c(c3n(C)c2c1)C(=O)C=CC4=O

>  <VALUE_UNIT>
%

>  <NUMBER>
22

$$$$
>  <COMPOUND>
Cc1c2cc[n+](Cc3ccc(I)cc3)cc2c(C)c2c1[nH]c1ccccc12

>  <VALUE_UNIT>
%

>  <NUMBER>
90

$$$$
>  <COMPOUND>
CCC(C)(C)c1ccc(Oc2cccc(C(=O)O)c2)cc1

>  <VALUE_UNIT>
%

>  <NUMBER>
2

$$$$
>  <COMPOUND>
OC1(c2ccccc2)CCCc2ccc(Cl)cc21 (stereo not given)

>  <VALUE_UNIT>
%

>  <NUMBER>
-2

$$$$
>  <COMPOUND>
CN(C)c1ccc2c(SCC(=O)OCC(=O)[C@@]3(O)CC[C@H]4[C@@H]5CCC6=CC(=O)C=C[C@]6(C)[C@H]5C(=O)C[C@@]43C)c3ccc(N(C)C)cc3nc2c1

>  <VALUE_UNIT>
%

>  <NUMBER>
69

$$$$
>  <COMPOUND>
COc1cc2cc3c4cc(OC)c(OC)cc4cc[n+]3c(C)c2cc1OC

>  <VALUE_UNIT>
%

>  <NUMBER>
-38

$$$$
>  <COMPOUND>
O=[N+]([O-])c1cccc2nc3ccccc3c(NCCCn3ccnc3[N+](=O)[O-])c12

>  <VALUE_UNIT>
%

>  <NUMBER>
38

$$$$

Which growth inhibition is listed for N#CC1=C(N)N(/N=C/c2ccccc2)C(c2ccccc2)C1(C#N)C#N (stereo not given) ?
84

Further, for `CCOC1(c2cccc([N+](=O)[O-])c2)c2ccccc2Oc2ccccc21` ?
0

Now try `O=[N+]([O-])/C=C/c1cc(Cl)c(/C=C/[N+](=O)[O-])cc1Cl` .
68

Entry N=C1N=Nc2nc(C3(c4nc5n(c4O)C(=N)N=N5)Cc4ccccc4C3=O)c(O)n21 (stereo not given) please
22

Now give it for CC(C)C(C)/C=C\C(C)C1CCC2C3=CC=C4CC(O)CCC4(C)C3CCC21C (stereo not given) too.
-1

Please answer likewise for O=C(NNc1ccccc1)C(O)C(O)C(O)C(O)C(O)CO (stereo not given)
23

And `COc1cc(CSc2ccc(O)cc2)cc(O)c1O` ?
1

Then `Cc1cccc2c1nc1ccc(Cl)cc1[n+]2C` ?
59

Okay, and CC(=O)OC1CCC2(C)C(=CC(C3C=C4CC(OC(C)=O)CCC4(C)C4=C3C3CC5OC6(CCC(C)CO6)C(C)C5C3(C)CC4)C3=C2CCC2(C)C3CC3OC4(CCC(C)CO4)C(C)C32)C1 (stereo not given) ?
-2

Now consider `CCCC(=O)Oc1ccc(/C=N/NC(N)=S)nc1` .
-2

`OCc1ccccc1Cc1ccccc1` , same question.
-2

Next compound up: COc1nc2c(c(=O)n1C)N=C(c1ccccc1)[C@H](C(CC(=O)c1ccccc1)c1ccccc1)C(c1ccccc1)N2 (stereo not given in full)
-9
